test: Cmax in CD1 mouse at 11.512 mg/kg administered via oral gavage by LC-MS/MS method; format: ADME, organism-based; parameters: dose 11.512 mg/kg, route oral; conditions: in vivo, 11.51 mg/kg

{"Molecule Smiles": "Cc1[nH]c(C)c(-c2ccc(-c3ccc(C(F)(F)F)cc3F)nc2)c(=O)c1Cl", "Cmax (ng/mL)": 6380}

###

assay: AUC (0 to t) in CD1 mouse at 10.757 mg/kg administered via oral gavage by LC-MS/MS method; assay type: ADME, organism-based; conditions: in vivo

{"Molecule Smiles": "Cc1[nH]c(C)c(-c2ccc(-c3ccc(OC(F)(F)F)cc3)nc2)c(=O)c1Cl", "AUC(0-t) [µg·h/mL]": 167}
